Source listed as PubChem BioAssay (Tox21).

Experiment: qHTS assay to identify small molecule antagonists of the estrogen related receptor signaling pathway with the pleiotropic PPARgamma coactivator (PGC) from Tox21 10K library - cell viability counter screen (AID 1224840); note: nearly all actives have a fitted effect of over 40% in size
Conditions: PGC/ERR reporter cells viability, CellTiter-Fluor, 17.5 h; series mostly up to 92.4 µM
Results filed as inconclusive are left out. The source made the active and inactive calls. Calls come from the whole dose curve; as a rule, active = well fitted cell-killing curve with a large enough effect in the repeat runs (not every such curve was filed as active); inconclusive = weak or mixed curves, or effect the other way; inactive = no such curve, though single readings can be large or run the other way.
Classes used: y for active, n for inactive

COMPOUND	ANSWER_LABEL
CC1COC2(c3ccccc3Cl)c3cc(Cl)ccc3NC(=O)CN12 (stereo not given)	n
Clc1cccc(N2CCNCC2)c1	n
CN/C(=N\[N+](=O)[O-])NCC1CCOC1 (stereo not given)	n
COc1cc(C[C@@H](C)N)c(OC)cc1C	n
C=CC1CC=CCC1 (stereo not given)	n
Cc1ncc2n1-c1ccc(Cl)cc1C(c1ccccc1F)=NC2	n
CN1CCC(O)(c2ccc(F)cc2)C(C(=O)c2ccc(F)cc2)C1 (stereo not given)	n
CS(=O)(=O)c1cc(C(F)(F)F)ccc1C(=O)c1cnoc1C1CC1	n
CCCCC(=O)Cl	n
N#Cc1c(Cl)cccc1Cl	n
Nc1n[nH]c(N)n1	n
c1ccc(N2CCNCC2)cc1	n
CCCCOC(=O)c1ccccc1N	n
O=C(CCCN1CCC(n2c(=O)[nH]c3ccccc32)CC1)c1ccc(F)cc1	n
CC(C1CC1)C(O)(Cn1cncn1)c1ccc(Cl)cc1 (stereo not given)	n
CCOC(=O)N(C)C(=O)CSP(=S)(OCC)OCC	n
N#CC(CCc1ccc(Cl)cc1)(Cn1cncn1)c1ccccc1 (stereo not given)	y
CCC(=O)c1ccccc1	n
COCC(=O)N(c1c(C)cccc1C)N1CCOC1=O	n
ClCC(Cl)Cl	n
CCOC(=O)C1(c2ccccc2)CCN(CCc2ccc(N)cc2)CC1	n
COc1cccc2c1cc([N+](=O)[O-])c1c(C(=O)O)cc3c(c12)OCO3	y
CC1(C)C(=O)NC(=O)NC1=O	n
NC1=NC(=O)C(c2ccccc2)O1 (stereo not given)	n
CC(Cl)(Cl)[N+](=O)[O-]	n
CCCSC(=O)N(CCC)CCC	n
CC(N)=S	n
COc1cc(OC)nc(NC(=O)NS(=O)(=O)c2ncccc2OCC(F)(F)F)n1	n
COc1ccc(C(=O)N2CCCC2=O)cc1	n
COc1ccc2c(c1OC)CN1CCc3cc4c(cc3C1C2)OCO4 (stereo not given)	n
CCOP(=S)(OCC)Oc1nc(Cl)n(C(C)C)n1	n
COc1cccc(C(=O)NN(C(=O)c2cc(C)cc(C)c2)C(C)(C)C)c1C	n
O=C1OC(c2ccc(O)c(S(=O)(=O)O)c2)(c2ccc(O)c(S(=O)(=O)O)c2)c2c(Br)c(Br)c(Br)c(Br)c21	n
CN(N=O)C(N)=O	n
COc1ncc(F)c2nc(S(=O)(=O)Nc3c(F)cccc3F)nn12	n
NC(=O)O	n
CC1(C)COP(Oc2ccccc2)OC1	n
CCNc1nc(NC(C)C)nc(OC)n1	n
ClC(Cl)Br	n
Nc1ccccc1Cl	n
Nc1cc2c3c(c1)C(c1ccccc1)=N[C@@H](NC(=O)c1cccnc1)C(=O)N3CC2	n
CNNC	n
COc1cc2c(cc1OC)[C@@]13CCN4CC5=CCO[C@H]6CC(=O)N2[C@H]1[C@H]6[C@H]5C[C@H]43	n
Clc1ccccc1N1CCNCC1	n
CCOP(=S)(OCC)SCSc1ccc(Cl)cc1	n
O=C(O)c1cccc(Cl)c1	n
CN1C(=S)CN=C(c2ccccc2)c2cc(Cl)ccc21	n
Oc1c(Cl)cccc1Cl	n
CC1CN1P(=O)(N1CC1C)N1CC1C (stereo not given)	n
Cc1cc(C)nc(Nc2ccccc2)n1	n
COC(=O)c1c(C(F)F)nc(C(F)(F)F)c(C2=NCCS2)c1CC(C)C	n
CCCCOP(=O)(O)OCCCC	n
O=[N+]([O-])c1cccc2cccnc12	n
O=C(O)c1ccc2[nH]cc(CCCCN3CC=C(c4ccccc4)CC3)c2c1	n
C[C@]12CC[C@H]3[C@@H](CCC4=CC(=O)CC[C@@]43C)[C@@H]1CC[C@@H]2C(=O)O	n

----------
Assay: A CellTox Green Cytotoxicity Assay to monitor cytotoxicity in HEK293 cells - 24 hour (AID 1224875); note: nearly all actives have a fitted effect of over 45% in size
Settings: CellTox Green fluorescence; series mostly up to 76.8 µM
Inconclusive results are not listed. Active and inactive are the calls of the source. The call rests on the fitted dose curve; in most records, active means well fitted activation curve with a large enough effect in the repeat runs; inconclusive means weak or mixed curves; inactive means flat fitted curve, though single readings scatter.
Classes used: 1 for active, -1 for inactive

COMPOUND	ANSWER_LABEL
CCCCOC(=O)[C@@H](C)Oc1ccc(Oc2ccc(C#N)cc2F)cc1	-1
N#CC(Cl)(Cl)Cl	-1
COP(N)(=S)Oc1ccccc1C(=O)OC(C)C (centres undefined)	-1
OC(c1ccc(F)cc1)(c1cncnc1)c1ccccc1Cl (centres undefined)	-1
N#Cc1c(Cl)cccc1Cl	-1
C[C@H]1CCC[C@H](O)CCCCCc2cc(O)cc(O)c2C(=O)O1	-1
CCN(Cc1ccc(Cl)nc1)/C(=C/[N+](=O)[O-])NC	-1
CN1C(=S)CN=C(c2ccccc2)c2cc(Cl)ccc21	-1
Cc1ncc(CNC(=O)N(CCCl)N=O)c(N)n1	-1
CSc1nc(N=[N+]=[N-])nc(NC(C)C)n1	-1
CCOC(=O)N(C)C(=O)CSP(=S)(OCC)OCC	-1
C[C@@H]1CN(C2CCC(C#N)(c3ccc(F)cc3)CC2)CC[C@]1(C(=O)O)c1ccccc1 (some centres undefined)	-1
COCC(=O)N(c1c(C)cccc1C)N1CCOC1=O	-1
CC(CC(C#N)(c1ccccc1)c1ccccc1)N(C)C (centres undefined)	-1
CC(C)(C)OC(=O)c1ncn2c1[C@@H]1CCCN1C(=O)c1c(Br)cccc1-2	-1
CC(=O)CCc1ccc2c(c1)OCO2	-1
O=C1OC(=O)C2C1C1(Cl)C(Cl)=C(Cl)C2(Cl)C1(Cl)Cl (centres undefined)	-1
N#Cc1ccncc1	-1
CC(C)CC(N(C)C)C1(c2ccc(Cl)cc2)CCC1 (centres undefined)	1
CCCSP(=S)(OCC)Oc1ccc(Cl)cc1Cl (centres undefined)	-1
C[N+](C)=CCl	-1
COC(=O)C(C)Oc1ccc(Oc2ccc(Cl)cc2Cl)cc1 (centres undefined)	-1
CCOP(=S)(OCC)Oc1ncn(-c2ccccc2)n1	-1
Cc1ncsc1CCCl	-1
CNC(=O)Oc1ccc(N(C)C)c(C)c1	-1
O=C(O)c1cccc(Cl)c1	-1
C#C[C@]1(O)C=C[C@H]2[C@@H]3CCC4=CC(=O)CC[C@@H]4[C@H]3CC[C@@]21CC	-1
O=[N+]([O-])c1cccc2cccnc12	-1
Nc1ccccc1Cl	-1
CCOc1nc(C(Cl)(Cl)Cl)ns1	-1
CCC(=O)C(CCN(C)C)(c1ccccc1)c1ccccc1	-1
CN(N=O)C(N)=O	-1
C[C@]12CC[C@H]3[C@@H](CCC4=CC(=O)CC[C@@]43C)[C@@H]1CC[C@@H]2C(=O)O	-1
O=NN1CCCCC1	-1
C=CC1CC=CCC1 (centres undefined)	-1
CN1CCN(C(=O)O[C@H]2c3nccnc3C(=O)N2c2ccc(Cl)cn2)CC1	-1
BrCCCCCCBr	-1
CCCCN(CCCCO)N=O	-1
CC(COc1ccc(Oc2ccccc2)cc1)Oc1ccccn1 (centres undefined)	-1
O=C(Oc1ccc(Br)cc1)N1CCN2CCC1CC2	-1
Nc1cc(Cl)ccc1O	-1
CC(C)COP(=O)(OCC(C)C)OCC(C)C	-1
CC(C1CC1)C(O)(Cn1cncn1)c1ccc(Cl)cc1 (centres undefined)	-1
c1ccc(N2CCNCC2)cc1	-1
CCOC(=O)C1(c2ccccc2)CCN(CCc2ccc(N)cc2)CC1	-1
CC1(C)COP(Oc2ccccc2)OC1	-1
C=C(C)CN(CC)c1c([N+](=O)[O-])cc(C(F)(F)F)cc1[N+](=O)[O-]	-1
CCC1(c2ccccc2)C(=O)N=C(O)NC1=O (centres undefined)	-1
O=CNC(N1CCN(C(NC=O)C(Cl)(Cl)Cl)CC1)C(Cl)(Cl)Cl (centres undefined)	-1
C(CCOCC1CO1)COCC1CO1 (centres undefined)	-1
ClCCOCOCCCl	-1
O=C(O)c1ccc2[nH]cc(CCCCN3CC=C(c4ccccc4)CC3)c2c1	-1
CN1C[C@@H](NS(=O)(=O)N(C)C)C[C@@H]2c3cccc4c3c(cn4C)C[C@H]21	-1
O=c1oc2ccccc2c(O)c1C1CCCc2ccccc21 (centres undefined)	-1

----------
Assay: qHTS assay to identify small molecule agonists of the endoplasmic reticulum stress response signaling pathway - cell viability counter screen (AID 1159517);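 note: HeLa cells carrying an ER stress response element beta-lactamase reporter; nearly all actives have a fitted effect of over 50% in size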
Conditions: ESRE-bla HeLa viability, CellTiter-Glo luminescence, 5 h; series mostly up to 61 µM
Records with an inconclusive call do not appear. Activity calls are given as the source filed them. The call rests on the fitted dose curve.
MEASUREMENT_NAME: outcome

COMPOUND	EXPERIMENTAL_VALUE
O=[N+]([O-])c1cc(Cl)c(Cl)c(Cl)c1	inactive
N#CCCC#N	inactive
CN1CCC(O)(c2ccc(F)cc2)C(C(=O)c2ccc(F)cc2)C1 (stereo not given)	inactive
ClC(Cl)Br	inactive
O=CNC(N1CCN(C(NC=O)C(Cl)(Cl)Cl)CC1)C(Cl)(Cl)Cl (stereo not given)	inactive
COc1ccc(C(=O)N2CCCC2=O)cc1	inactive
CCOP(=S)(OCC)SCSP(=S)(OCC)OCC	inactive
CCCSC(=O)Cl	inactive
CC(C)CC#N	inactive
CN(C)CCc1ccc(O)cc1	inactive
